Kindly state IC50 for each of the entries shown.
- target-under-test: 1,3-beta-glucan synthase (Candida albicans)
- protocol-details: In vitro inhibition of 1,3-beta-glucan synthase in Candida albicans membrane assay.
One number for each entry, in nM.

{"compound": "CCC(C)CC(C)CCCCCCCCC(=O)N[C@@H]1C[C@@H](O)CNC(=O)[C@@H]2[C@@H](O)CCN2C(=O)[C@H]([C@@H](O)CC(N)=O)NC(=O)[C@H]([C@@H](O)Cc2ccc(O)c(I)c2)NC(=O)[C@@H]2C[C@@H](O)CN2C(=O)[C@H]([C@@H](C)O)NC1=O (stereo partly drawn)", "IC50 [nM]": 100}

Okay, here is my list. What is IC50 for each of these?
1. CCC(C)CC(C)CCCCCCCCC(=O)N[C@@H]1C[C@@H](O)CNC(=O)[C@@H]2[C@@H](O)CCN2C(=O)[C@H]([C@@H](O)CC(N)=O)NC(=O)[C@H]([C@@H](O)Cc2ccc(O)c(CCO)c2)NC(=O)[C@@H]2C[C@@H](O)CN2C(=O)[C@H]([C@@H](C)O)NC1=O (stereo partly drawn)
2. CCC(C)CC(C)CCCCCCCCC(=O)N[C@@H]1C[C@@H](O)CNC(=O)[C@@H]2[C@@H](O)CCN2C(=O)[C@H]([C@@H](O)CC(N)=O)NC(=O)[C@H]([C@@H](O)Cc2ccc(O)c(/C=C/C(=O)OC)c2)NC(=O)[C@@H]2C[C@@H](O)CN2C(=O)[C@H]([C@@H](C)O)NC1=O (stereo partly drawn)
3. CCC(C)CC(C)CCCCCCCCC(=O)N[C@@H]1C[C@@H](O)[C@@H](O)NC(=O)[C@@H]2[C@@H](O)CCN2C(=O)[C@H]([C@@H](O)CC(N)=O)NC(=O)[C@H]([C@@H](O)[C@H](O)c2ccc(O)c([N+](=O)[O-])c2)NC(=O)[C@@H]2C[C@@H](O)CN2C(=O)[C@H]([C@@H](C)O)NC1=O (stereo partly drawn)
4. CCC(C)CC(C)CCCCCCCCC(=O)N[C@@H]1C[C@@H](O)[C@@H](O)NC(=O)[C@@H]2[C@@H](O)CCN2C(=O)[C@H]([C@@H](O)CC(N)=O)NC(=O)[C@H]([C@@H](O)[C@H](O)c2ccc(O)c(NC(=O)CCC(=O)O)c2)NC(=O)[C@@H]2C[C@@H](O)CN2C(=O)[C@H]([C@@H](C)O)NC1=O (stereo partly drawn)

**A:**
1. 60
2. 150
3. 2900
4. 150

Okay, here is my list. What is IC50 for each of these?
1. CCC(C)CC(C)CCCCCCCCC(=O)N[C@@H]1C[C@@H](O)CNC(=O)[C@@H]2[C@@H](O)CCN2C(=O)[C@H]([C@@H](O)CC(N)=O)NC(=O)[C@H]([C@@H](O)Cc2ccc(O)c(CCN)c2)NC(=O)[C@@H]2C[C@@H](O)CN2C(=O)[C@H]([C@@H](C)O)NC1=O (stereo partly drawn)
2. CCC(C)CC(C)CCCCCCCCC(=O)N[C@@H]1C[C@@H](O)CNC(=O)[C@@H]2[C@@H](O)CCN2C(=O)[C@H]([C@@H](O)CC(N)=O)NC(=O)[C@H]([C@@H](O)Cc2ccc(O)c(C(=O)OC)c2)NC(=O)[C@@H]2C[C@@H](O)CN2C(=O)[C@H]([C@@H](C)O)NC1=O (stereo partly drawn)
3. CCC(C)CC(C)CCCCCCCCC(=O)N[C@@H]1C[C@@H](O)CNC(=O)[C@@H]2[C@@H](O)CCN2C(=O)[C@H]([C@@H](O)CC(N)=O)NC(=O)[C@H]([C@@H](O)Cc2ccc(O)cc2)NC(=O)[C@@H]2C[C@@H](O)CN2C(=O)[C@H]([C@@H](C)O)NC1=O (stereo partly drawn)
4. CCCc1cc(C[C@H](O)[C@@H]2NC(=O)[C@@H]3C[C@@H](O)CN3C(=O)[C@H]([C@@H](C)O)NC(=O)[C@H](NC(=O)CCCCCCCCC(C)CC(C)CC)C[C@@H](O)CNC(=O)[C@@H]3[C@@H](O)CCN3C(=O)[C@H]([C@@H](O)CC(N)=O)NC2=O)ccc1O (stereo partly drawn)
5. C=Cc1cc(C[C@H](O)[C@@H]2NC(=O)[C@@H]3C[C@@H](O)CN3C(=O)[C@H]([C@@H](C)O)NC(=O)[C@H](NC(=O)CCCCCCCCC(C)CC(C)CC)C[C@@H](O)CNC(=O)[C@@H]3[C@@H](O)CCN3C(=O)[C@H]([C@@H](O)CC(N)=O)NC2=O)ccc1O (stereo partly drawn)

**A:**
200
3000
70
600
80

Okay, here is my list. What is IC50 for each of these?
1. CCc1cc(C[C@H](O)[C@@H]2NC(=O)[C@@H]3C[C@@H](O)CN3C(=O)[C@H]([C@@H](C)O)NC(=O)[C@H](NC(=O)CCCCCCCCC(C)CC(C)CC)C[C@@H](O)CNC(=O)[C@@H]3[C@@H](O)CCN3C(=O)[C@H]([C@@H](O)CC(N)=O)NC2=O)ccc1O (stereo partly drawn)
2. CCC(C)CC(C)CCCCCCCCC(=O)N[C@@H]1C[C@@H](O)CNC(=O)[C@@H]2[C@@H](O)CCN2C(=O)[C@H]([C@@H](O)CC(N)=O)NC(=O)[C@H]([C@@H](O)Cc2ccc(O)c(N)c2)NC(=O)[C@@H]2C[C@@H](O)CN2C(=O)[C@H]([C@@H](C)O)NC1=O (stereo partly drawn)

**A:**
[260, 50]

Hey, just so you know, these numbers are from BindingDB's records for doi:10.1016/S0960-894X(97)10107-X.
